These entries and their values trace back to patent US20240368283A1.

# Target: cyPD1 (cynomolgus monkey)
# Protocol Notes: biosensor kinetics (BLI type); antibody captured on anti-human Fc biosensor, PD-1 in solution
# reported pKd; entries follow
Quick note: pKd values are minus log10 of concentrations in mol/L.

Study these solved cases before continuing.
Binder: TA275 (antibody, V domains shown, Fc SEQ 587, CL SEQ 416) VH: QVTLKESGPGILQPSQTLSLTCSFSGFSLSTFGMGVGWIRQPSGKGLEWLAHIWWDDDKYYNPALKSRLTISKDTSKNQVFLKIANVDTADTATYYCARIPTRYWYFDVWGTGTTVTVSS VL: QAVVTQESALTTSPGETVTLTCRSSTGAVTTSNYANWVQEKPDHLFTGLIGGTNNRAPGVPARFSGSLIGDKAALTITGAQTEDEAIYFCALWYSTHYVFGGGTKVTVL
pKd: 6.01
--
Binder: TA101 (antibody, V domains shown, Fc SEQ 587, CL SEQ 416) VH: DVQLVESGGGVARPGEFLRLSCAASGFTFRDYDMGWVRQAPGEGLEWVSSISVSGTTYYADSVKGRFTISRDNSENTLYLQMNSLTAEDTAVYYCGREDTLFHYWGLGTLVTVSS VL: QSVLTQPPSASGTPGQRVTISCSGSTSNIGTRYVYWYQQLPGTAPKLLIYKNLQRPSGVPDRFSGSKSGTSASLAISGLQSEDEADYYCAAWDERLNGWVFGGGTKLTVL
pKd: 7.21
--
Binder: TA132 (antibody, V domains shown, Fc SEQ 587, CL SEQ 416) VH: EVQLLESGGAFVQPGGSLRLSCAASGFTFSDYYMSWVRQAPGKGLEWVSVISNSGGSTYYTDSVKGRFTISRDNSKNTLYLQINSLRAEDTAVYYCTKDIGMTYFDYWGQGTLVTVSS VL: QSVLTQPPSASGAPGQRVTISCSGSYSNIGNSYVSWYQQLPGTAPKLLIYLNSQRPSGVPDRFSGSKSGTSASLAISGLQSEDEADYYCAAWDDLNVWVFGGGTKLTVL
pKd: 7.04

Now consider the entry below.
So what does the record say about pKd for TA289 (antibody, V domains shown, Fc SEQ 587, CL SEQ 416) VH: QVTLKESGPGILQPSQTLSLTCSFSGFSLSTFGMGVGWIRQPSGKGLEWLAHIWWDDDKYYNPALKSRLTISKDTSKNQVFLKIANVDTADTATYYCARIRGTWWYFDVWGTGTTVTVSS VL: QAVVTQESALTTSPGETVTLTCRSSTGAVTTSNYANWVQEKPDHLFTGLIGGTNNRAPGVPARFSGSLIGDKAALTITGAQTEDEAIYFCALWYSNQFIFGSGTKVTVL ?
5.86
